molecular target: cynomolgus CD3εδ Fc heterodimer (Cy CD3ε Fc / CD3δ Fc-HIS) (cynomolgus) (UniProt Q95LI8); assay: BLI (ForteBio), pH 6.0
Sequence (chain, as listed by the source mutant, chain 1 of 2): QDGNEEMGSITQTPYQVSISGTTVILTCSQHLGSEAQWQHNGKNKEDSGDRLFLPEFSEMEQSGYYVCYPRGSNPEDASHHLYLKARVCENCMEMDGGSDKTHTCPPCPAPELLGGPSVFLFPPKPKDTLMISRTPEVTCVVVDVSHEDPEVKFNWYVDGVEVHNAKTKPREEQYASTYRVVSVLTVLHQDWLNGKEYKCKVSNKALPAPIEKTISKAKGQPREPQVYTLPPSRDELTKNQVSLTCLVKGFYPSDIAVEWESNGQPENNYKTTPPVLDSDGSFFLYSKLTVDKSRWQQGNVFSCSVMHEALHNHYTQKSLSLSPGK
Sequence (Q95LI8 22-100, stated change not applied, chain 2 of 2): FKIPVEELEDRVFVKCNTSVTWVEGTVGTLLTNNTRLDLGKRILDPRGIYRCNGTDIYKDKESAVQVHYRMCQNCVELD
Kd: recorded values
Give a bare numeral; the unit nM is implied.

SAD10320_P02_E05 (antibody, V domains shown) VH: QVQLVQSGAEVKKPGASVKVSCKASGFNIKDYYMHWVRQAPGQRLEWMGWIDLENANTIYDAKFQGRVTITRDTSASTAYMELSSLRSEDTAVYYCARDMHGRYFYDVWGQGTLVTVSS VL: DIVMTQSPDSLAVSLGERATINCKSSQSLLNARTGKNYLAWYQQKPGQPPKLLIYWASTRESGVPDRFSGSGSGTDFTLTISSLQAEDVAVYYCKQSEHRRTFGGGTKVEIK ... 14.5
SAD10320_P03_A09 (antibody, V domains shown) VH: QVQLVQSGAEVKKPGASVKVSCKASGFNIKDYYMHWVRQAPGQRLEWMGWIDLENANTIYDAKFQGRVTITRDTSASTAYMELSSLRSEDTAVYYCARDAYGHVFYDVWGQGTLVTVSS VL: DIVMTQSPDSLAVSLGERATINCKSSQSLLNARTGKNYLAWYQQKPGQPPKLLIYWASTRESGVPDRFSGSGSGTDFTLTISSLQAEDVAVYYCKQSSHRRTFGGGTKVEIK ... 14.6

Using the record for SAD10320_P04_F11 (antibody, V domains shown) VH: QVQLVQSGAEVKKPGASVKVSCKASGFNIKDYYMHWVRQAPGQRLEWMGWIDLENANTIYDAKFQGRVTITRDTSASTAYMELSSLRSEDTAVYYCARDAYGHEFYDVWGQGTLVTVSS VL: DIVMTQSPDSLAVSLGERATINCKSSQSLLNARTGKNYLAWYQQKPGQPPKLLIYWASTRESGVPDRFSGSGSGTDFTLTISSLQAEDVAVYYCKQGHSRRTFGGGTKVEIK , state its measured Kd. 9.55

Using the record for SAD10320_P04_C10 (antibody, V domains shown) VH: QVQLVQSGAEVKKPGASVKVSCKASGFNIKDYYMHWVRQAPGQRLEWMGWIDLENANTIYDAKFQGRVTITRDTSASTAYMELSSLRSEDTAVYYCARDAYGHAFYDVWGQGTLVTVSS VL: DIVMTQSPDSLAVSLGERATINCKSSQSLLNARTGKNYLAWYQQKPGQPPKLLIYWASTRESGVPDRFSGSGSGTDFTLTISSLQAEDVAVYYCKQSYHQRTFGGGTKVEIK , state its measured Kd. 168

Using the record for SAD10320_P03_E07 (antibody, V domains shown) VH: QVQLVQSGAEVKKPGASVKVSCKASGFNIKDYYMHWVRQAPGQRLEWMGWIDLENANTIYDAKFQGRVTITRDTSASTAYMELSSLRSEDTAVYYCARDAVHRYFYDVWGQGTLVTVSS VL: DIVMTQSPDSLAVSLGERATINCKSSQSLLNARTGKNYLAWYQQKPGQPPKLLIYWASTRESGVPDRFSGSGSGTDFTLTISSLQAEDVAVYYCKQSYHPRTFGGGTKVEIK , state its measured Kd. 33.8

Using the record for SAD10320_P03_F09 (antibody, V domains shown) VH: QVQLVQSGAEVKKPGASVKVSCKASGFNIKDYYMHWVRQAPGQRLEWMGWIDLENANTIYDAKFQGRVTITRDTSASTAYMELSSLRSEDTAVYYCARDAYGHDFYDVWGQGTLVTVSS VL: DIVMTQSPDSLAVSLGERATINCKSSQSLLNARTGKNYLAWYQQKPGQPPKLLIYWASTRESGVPDRFSGSGSGTDFTLTISSLQAEDVAVYYCKQSYHRRTFGGGTKVEIK , state its measured Kd. 37

Using the record for SAD10320_P04_A11 (antibody, V domains shown) VH: QVQLVQSGAEVKKPGASVKVSCKASGFNIKDYYMHWVRQAPGQRLQWMGWIDLENANTIYDAKFQGRVTITRDTSASTAYMELSSLRSEDTAVYYCARDARHRYFYDVWGQGTLVTVSS VL: DIVMTQSPDSLAVSLGERATINCKSSQSLLNARTGKNYLAWYQQKPGQPPKLLIYWASTRESGVPDRFSGSGSGTDFTLTISSLQAEDVAVYYCKQSYSHGTFGGGTKVEIK , state its measured Kd. 29.4

Using the record for SAD10320_P04_F10 (antibody, V domains shown) VH: QVQLVQSGAEVKKPGASVKVSCKASGFNIKDYYMHWVRQAPGQTLDWMGWIDLENANTIYDAKFQGRVTITRDTSASTAYMELSSLRSEDTAVYYCARDAYGRNHYDVWGQGTLVTVSS VL: DIVMTQSPDSLAVSLGERATINCKSSQSLLNARPGKNYLAWYQQKPGQPPKLLIYWASTRESGVPDRFSGSGSGTDFTLTISSLQAEDVAVYYCKQSYLHRTFGGGTKVEIK , state its measured Kd. 8.51
